Tested on: T-47D breast
Assay: NCI tumour cell line growth inhibition, 48 h
measured_metric: TGI (µM)
Give the quantity in µM, number only.

Illustrative cases are given below, each with its answer.
Q) What does the record list as TGI for `C(=N\NC1=NCCCN1)/c1ccc2ccccc2c1` ?
A) 33

Q) Entry `Cc1cc(Nc2nc(SCc3ccc(C(=O)Nc4ccc(F)cc4N)cc3)nn3cccc23)n[nH]1` has what TGI?
A) 52.6

Q) Quick check: TGI of `CCC(=C(c1ccc(OCCCN(C)C)cc1)c1ccc(OCCCN(C)C)cc1)c1ccc(Cl)cc1` ?
A) 3.16

Q) Need TGI, item `O=P(c1ccccc1)(c1ccccc1)N1O[C@@H](c2ccccc2)C=C[C@H]1c1ccccc1`
A) 20

Field: next compound
Q) What TGI value was documented for this compound, `O=C(c1ccc2ccccc2c1)c1c(C(F)(F)F)n([O-])c2ccc(Cl)cc2[n+]1=O` ?
A) 1.78

====

Measured GI50, listed per entry.
Test system: IGROV1 ovarian
Test: NCI tumour cell line growth inhibition, 48 h

Q) Which GI50 is listed for O=C(O)CCC(NC(=S)S)C(=O)O.[Na+].[Zn+2] (stereo not drawn) ?
A) > 50 µM

Next:
Q) Please look up its GI50: C[n+]1c2ccccc2cc2c(CNC(CCCN=C(N)N)C(=O)O)cccc21 (stereo not drawn)
A) 4.09 µM

Q) Data request, read-out GI50, for `O=C1C(Cl)=C(Nc2ccccc2)C(=O)c2ccccc21`
A) 1.75 µM

====

Tested on: M14 melanoma
Experiment: NCI tumour cell line growth inhibition, 48 h
Measured GI50 accompanies every entry in the list below.

Recorded GI50, per entry:
Q) Dear colleague, I am looking for the recorded GI50 of the following compound: CCCCCCCCCCCCCCCCCCNC(=O)[C@H]1CSC(c2cccs2)N1 (stereo partly specified)
A) 868 nM

Q) // query GI50 value for entry `COc1ccccc1/C=C/C(=O)/C=C/c1ccccc1O`
A) 1460 nM

Q) Consider the compound shown here: `C[C@H](Cn1ncnn1)Nc1ncc2cc(Oc3ccc(F)cc3F)c(=O)n(C)c2n1` What is its recorded GI50?
A) > 25000 nM

Q) // lookup GI50 for `CC(=O)N[C@H](C(=O)N[C@@H](CCCNC(=N)N)C(=O)N[C@@H](CCCCN)C(=O)N[C@@H](CCCNC(=N)N)C(=O)N[C@]1(C)CCCCCC/C=C\CCC[C@@](C)(C(=O)N[C@@H](CCCNC(=N)N)C(=O)N[C@@H](CCC(=O)O)C(=O)N[C@@H](CC(C)C)C(=O)N[C@H](C(=O)N[C@@H](CCC(=O)O)C(N)=O)C(C)C)NC(=O)[C@H](CCC(N)=O)NC(=O)[C@H](CC(C)C)NC(=O)[C@H](CC(C)C)NC(=O)[C@H](CCCNC(=N)N)NC(=O)[C@H](CCCNC(=N)N)NC(=O)[C@H](CC(C)C)NC1=O)C(C)C`
A) 2130 nM

Q) // GI50 lookup, key: C=C1CC2(OC1=O)C(=O)N(CCCN1C(=O)C3(CC(=C)C(=O)O3)c3ccccc31)c1ccccc12 (stereo unspecified)
A) 1680 nM

Here's the next entry for you.
Q) I would be grateful if you could share the reported GI50 for C[n+]1c2ccccc2cc2c(CNC(CCCN=C(N)N)C(=O)O)cccc21 (stereo unspecified) .
A) 2860 nM

====

Test system: CAKI-1 renal
Test: NCI tumour cell line growth inhibition, 48 h; in the data active = GI50 below about 0.43 µM; inactive = the rest
Returns: one label drawn from active, inactive

Q) Which outcome was entered for the molecule `O=S(=O)(CCOCc1ccc(-c2ccc3ncnc(Nc4ccc(OCc5cccc(F)c5)c(Cl)c4)c3c2)o1)c1ccccc1` in this test?
A) inactive

Q) Per the assay record, what outcome was assigned to `COc1ccc(-c2nnc(N3CCN(C(=O)CN4CCN(c5ccc(OC)cc5)CC4)CC3)nc2-c2ccc(OC)cc2)cc1` ?
A) inactive

Q) Record request — test call for `OB1OCc2cc(/C=C/c3cccc(C(F)(F)F)c3)ccc21`
A) active

New cases:
Q) Answer briefly: the call reported for `c1ccc(Cn2cnc3ccc(-c4nc(-c5ccc6c(c5)ncn6C5CCCCC5)cn5ccnc45)cc32)cc1` in this assay.
A) inactive

Q) Which outcome did this test record for the molecule `Cc1ncc(C(=O)Nc2ccc(CN3CCN(C)CC3)c(C(F)(F)F)c2)cc1C#Cc1cnc(NC2CC2)c2ncccc12` ?
A) inactive

Q) Entry `CC1(C)N=C(N)N=C(N)N1c1ccc(OCC(=O)Nc2ccccc2)c(Cl)c1` : call = ?
A) inactive

Q) Look up the recorded call for `O=S1(=O)NCCCN1CCNc1nccc(-c2c(-c3cccc(O)c3)nc3sccn23)n1` in this test.
A) inactive

====

Quick reference for TGI among some compounds
Tested on: SR leukemia
Assay: NCI tumour cell line growth inhibition, 48 h

Q) Request: TGI, test system SR leukemia, entry `CCOC(=N)n1c(=O)n(C2=NCCN2)c2ccccc21`
A) > 100 µM

Q) What is its TGI for SR leukemia? Entry: `CCN(CC)CCOc1ccc(N2C(=O)c3cc(OC)c(OC)cc3C2=O)cc1`
A) > 100 µM

Q) Please state recorded TGI (tested on SR leukemia) of CO[C@]12CC(=O)C3(C(C[C@H]4CC5CC=C6C[C@@H](OC(C)=O)CC[C@]6(OC(C)=O)C5C[C@@]43C)C1)C1C[C@H]3[C@@H]4CC=C5C[C@@H](OC(C)=O)CC[C@]5(OC(C)=O)[C@H]4CC[C@]3(C)C12 (stereo partly specified)
A) > 100 µM

Q) Any idea what TGI came out for CCCCCCCCCCCCCCCCCCNC(=O)[C@H]1CSC(c2cccs2)N1 (stereo partly specified) on SR leukemia?
A) 2.62 µM

Q) Given the entry COc1cccc(/C=C2\CCC(C)(CN(C)C)C2=O)c1 (stereo unspecified) , what TGI was observed with SR leukemia?
A) > 100 µM

Q) Param readout= TGI; system= SR leukemia; entry= CC(C(=O)n1nnc2ccccc21)N(c1ccccc1)c1ccccc1 (stereo unspecified) ; returns value.
A) > 100 µM

====

Here, each record is paired with measured TGI data.
System: TK-10 renal
Assay: NCI tumour cell line growth inhibition, 48 h

Q) Give TK-10 renal TGI for `O=C1C=CC(=O)N1Nc1ccc([N+](=O)[O-])cc1[N+](=O)[O-]`
A) > 100 µM

***
Q) Item Cc1ccc(S(=O)(=O)N/N=C(\c2nc3ccc([N+](=O)[O-])cc3[nH]c2=O)C(O)c2ccccc2Cl)cc1 (centres undefined) with TK-10 renal - TGI?
A) > 100 µM

Q) Enter reported TGI observed with TK-10 renal for `Cc1cc(Nc2nc(SCc3ccc(C(=O)Nc4ccc(F)cc4N)cc3)nn3cccc23)n[nH]1`
A) 7.33 µM

Q) Quick check: TGI on TK-10 renal, item `CC(C)COP(=O)(OCC(C)C)C(NS(=O)(=O)c1ccccc1)(C(F)(F)F)C(F)(F)F` ?
A) 15.6 µM

====

Test system: MCF7 breast
Test: NCI tumour cell line growth inhibition, 48 h
Entries and their log10 TGI values follow.
The base-10 logarithm of TGI, taken with TGI in µM, is what appears here.

Q) Look at this molecule and give its reported log10 TGI. COc1ccc(C(OCC2OC(n3cc(C)c(=O)[nH]c3=O)CC2n2cc(Cn3cc(F)c(=O)[nH]c3=O)nn2)(c2ccccc2)c2ccccc2)cc1 (configuration not stated)
A) 1.54

Q) So what's the measured log10 TGI for this one? `O=C(NCCCN(CCCCN(CCCNC(=O)C(F)(F)F)Cc1ccccc1)Cc1ccccc1)C(F)(F)F`
A) 1.39

Q) Entry `OB1OCc2cc(/C=C/c3cccc(C(F)(F)F)c3)ccc21` : reported log10 TGI = ?
A) 1.65

Q) Given the molecule `O=C(CNc1ccccc1Cl)Nn1c(-c2ccccc2)nc2ccccc2c1=O` , what is its reported log10 TGI?
A) 1.50

Q) Need log10 TGI, item `C(=N\NC1=NCCCN1)/c1ccc2ccccc2c1`
A) 1.20

---
Q) Which measured log10 TGI value corresponds to `Cc1ccccc1Nc1nc2c(s1)C(=O)c1ccccc1C2=O` ?
A) 0.64

Q) // query log10 TGI value for entry `Cc1c(S(=O)(=O)/N=C(\N)Nc2ccc(Cl)cc2)sc2ccc(Cl)cc12`
A) 1.55

Q) Name the recorded log10 TGI for `CN(C)Cc1c[nH]c2c(NCCN)c3c(c(NCCN)c12)C(=O)c1ccccc1C3=O` .
A) 1.97

Q) Query: log10 TGI; subject: O=C(/C=C/c1ccccc1)CC(c1ccccc1)N1CCOCC1 (configuration not stated)
A) 1.90

====

Tested on: MDA-MB-231 breast
Assay: NCI tumour cell line growth inhibition, 48 h
measured_metric: TGI

Known TGI results, listed for orientation:
Q) Can you look up the measured TGI of CC1CCCc2c1nn(C(=O)/C=C(\N)c1ccccc1)c2N (stereo not given) for me?
A) > 100 µM

Q) Which TGI value belongs to `O=C(CNc1ccccc1Cl)Nn1c(-c2ccccc2)nc2ccccc2c1=O` ?
A) > 10 µM

Q) Which value of TGI has been reported for CCOC(=O)c1c(-c2ccc(OC)cc2)c(C#N)c(=S)n(C2OC(COC(C)=O)C(OC(C)=O)C(OC(C)=O)C2OC(C)=O)c1C (stereo not given) in the records?
A) > 100 µM

Q) Please give the measured TGI for this molecule: COc1ccc(CC(O)CN2CCOCC2)cc1 (stereo not given)
A) > 100 µM

Q) State the recorded TGI for this entry: `CC(=O)N/N=C1\NC(=O)C[C@H]2[C@@H]3CC=C4C[C@@H](OC(C)=O)CC[C@]4(C)[C@H]3CC[C@]12C`
A) 39.3 µM

Next:
Q) Can you share its TGI? I mean this molecule: `c1ccc2sc(SCSc3nc4ccccc4s3)nc2c1`
A) > 100 µM

Q) TGI for `O=C(CCCN1CCC2(CC1)CC(=O)N(N1CCOCC1)C2=O)c1ccccc1` ?
A) > 100 µM

Q) I am curious: what TGI value has been reported for `CN(C)C(=S)S` ?
A) > 100 µM

Q) Need TGI, item `Cc1csc(-c2cn(C)c3c2C(=O)C(N)=CC3=O)n1`
A) > 100 µM

Q) Please look up its TGI: `CN(C)c1ccc(C=C2N=C(c3ccccc3)N(c3cc(C(=O)c4ccccc4)ccc3N3C(=O)/C(=C/c4ccc(N(C)C)cc4)N=C3c3ccccc3)C2=O)cc1`
A) > 100 µM
